Molecular target: T1, CD73 on the surface of human cells (human, UniProt P21589 27-549)
T1 sequence (looked up): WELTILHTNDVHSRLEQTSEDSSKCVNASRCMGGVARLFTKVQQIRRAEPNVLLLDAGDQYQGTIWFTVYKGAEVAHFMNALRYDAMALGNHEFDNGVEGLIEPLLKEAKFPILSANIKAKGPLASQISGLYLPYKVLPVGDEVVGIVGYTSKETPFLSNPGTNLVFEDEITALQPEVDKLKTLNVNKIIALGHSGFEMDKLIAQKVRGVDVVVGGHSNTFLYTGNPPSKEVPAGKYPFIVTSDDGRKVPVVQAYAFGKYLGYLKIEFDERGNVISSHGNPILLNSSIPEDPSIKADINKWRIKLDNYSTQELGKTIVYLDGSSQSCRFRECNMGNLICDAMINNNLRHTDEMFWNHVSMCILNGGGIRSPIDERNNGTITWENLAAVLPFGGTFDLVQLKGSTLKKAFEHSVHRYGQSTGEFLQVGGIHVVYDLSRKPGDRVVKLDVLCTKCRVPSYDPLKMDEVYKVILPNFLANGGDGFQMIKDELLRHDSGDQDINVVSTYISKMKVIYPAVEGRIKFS
Assay: cell-based or functional assay
REPORTED ENDPOINT: IC50, inhibition of AMP hydrolysis by CD73 on MDA-MB-231 cells (µg/mL)

* chimeric nanobody 5-E11 (Fc fusion, Human-alpaca chimeric antibody (VHH on hIgG1 Fc); Only the VHH is tied to the tested molecule; also called original antibody 5-E11) VHH: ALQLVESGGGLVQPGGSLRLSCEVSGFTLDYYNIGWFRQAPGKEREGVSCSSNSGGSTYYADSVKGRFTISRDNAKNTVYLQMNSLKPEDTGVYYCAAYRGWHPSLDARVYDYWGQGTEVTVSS | 0.088
* chimeric nanobody 4-D04 (Fc fusion, Human-alpaca chimeric antibody) VHH: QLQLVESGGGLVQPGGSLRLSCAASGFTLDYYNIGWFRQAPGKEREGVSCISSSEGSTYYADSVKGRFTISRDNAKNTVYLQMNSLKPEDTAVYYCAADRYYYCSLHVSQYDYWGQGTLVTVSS | 0.093
* chimeric nanobody 4-B02 (Fc fusion, Human-alpaca chimeric antibody) VHH: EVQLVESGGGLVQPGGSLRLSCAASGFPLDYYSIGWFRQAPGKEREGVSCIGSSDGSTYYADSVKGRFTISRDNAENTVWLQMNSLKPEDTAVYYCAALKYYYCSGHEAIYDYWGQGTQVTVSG | 0.083
* chimeric nanobody 3-D7 (Fc fusion, Human-alpaca chimeric antibody (VHH on hIgG1 Fc); Only the VHH is tied to the tested molecule; 37-39 exist for 3-D7-FC1/FC2/FC3; also called original antibody 3-D7) VHH: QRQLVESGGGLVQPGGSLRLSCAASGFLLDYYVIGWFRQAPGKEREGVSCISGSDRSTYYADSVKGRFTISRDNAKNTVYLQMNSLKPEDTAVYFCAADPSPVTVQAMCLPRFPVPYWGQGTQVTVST | 0.483
